# experimental target: human CD3 (human, UniProt P07766 23-207; P04234 22-171; P09693 23-182)
# Sequence (P07766 23-207, chain 1 of 3): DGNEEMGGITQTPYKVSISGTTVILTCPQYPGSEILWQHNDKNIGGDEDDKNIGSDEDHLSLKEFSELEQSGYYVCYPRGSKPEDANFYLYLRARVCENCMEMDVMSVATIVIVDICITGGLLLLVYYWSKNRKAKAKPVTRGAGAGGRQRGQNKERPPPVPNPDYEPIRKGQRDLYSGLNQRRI
# Sequence (P04234 22-171, chain 2 of 3): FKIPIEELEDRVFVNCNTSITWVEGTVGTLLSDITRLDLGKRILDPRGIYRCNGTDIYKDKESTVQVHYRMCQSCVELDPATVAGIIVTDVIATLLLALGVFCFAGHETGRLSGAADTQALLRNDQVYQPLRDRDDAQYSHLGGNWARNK
# Sequence (P09693 23-182, chain 3 of 3): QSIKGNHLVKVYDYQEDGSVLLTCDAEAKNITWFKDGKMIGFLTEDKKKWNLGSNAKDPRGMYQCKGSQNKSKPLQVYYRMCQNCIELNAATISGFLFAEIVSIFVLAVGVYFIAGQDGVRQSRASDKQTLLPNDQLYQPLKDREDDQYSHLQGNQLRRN
# assay summary: cell-based or functional assay
I'd appreciate it if you could supply EC50_Fold change (Jurkat-NFAT-luciferase activation, normalized to ch40-C12-C10-E9) values for the items below.
One number for each entry, in fold.

Task item: # query: EC50_Fold change (Jurkat-NFAT-luciferase activation, normalized to ch40-C12-C10-E9) of entry hu40E9-L4H3 (antibody, V domains shown) VH: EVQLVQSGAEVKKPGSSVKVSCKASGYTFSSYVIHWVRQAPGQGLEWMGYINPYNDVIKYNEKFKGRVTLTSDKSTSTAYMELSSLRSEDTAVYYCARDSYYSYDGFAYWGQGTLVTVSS VL: EIVLTQSPDFQSVTPKEKVTITCSASSSVSYMHWYQQKPDQSPKRLIYDTSKLASGVPSRFSGSGSGTDFTLTINSLEAEDAATYYCQQWRSRPPTFGGGTKVEIK
Reply: 1.82

Alright, here's another binder for you.
Task item: # query: EC50_Fold change (Jurkat-NFAT-luciferase activation, normalized to ch40-C12-C10-E9) of entry hu40E9-L2H9 (antibody, V domains shown) VH: EVQLVQSGAEVKKPGSSVKVSCKASGYTFSSYVIHWVRQAPGQGLEWMGYINPYSDVIKYNEKFKGRVTLTSDKSTSTAYMELSSLRSEDTAVYYCARESFYSYDGFAYWGQGTLVTVSS VL: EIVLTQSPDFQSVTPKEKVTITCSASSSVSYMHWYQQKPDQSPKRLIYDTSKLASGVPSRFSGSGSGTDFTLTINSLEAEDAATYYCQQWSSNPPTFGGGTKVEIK
Reply: 2.49
